test: 1-octanol/water partition coefficient (Poct) of tripeptides
measure: logP at 10 min

Problem: Identify logP at 10 min associated with the compound NC(=O)CNC(=O)C(CNC(=O)CNC=O)(COC(C(F)(F)F)(C(F)(F)F)C(F)(F)F)COC(C(F)(F)F)(C(F)(F)F)C(F)(F)F [tripeptide 4, Formyl-Gly-βFa-Gly-Amide]
Solution: > 1
